Below: a set of entries, each annotated with reported RP-LC retention time.
- test name: gradient 5% acetonitrile 3 min, to 50% in 2 min, to 85% in 15 min, held 3 min, 100 µL/min
- test settings: column: Zorbax Extend-C18 2.1 x 50 mm; eluents: water / acetonitrile, 0.1% formic acid
Answer in s, number only, no unit symbol.

>  <molecule>
CNC(=O)N1CCCC(c2cccc(C(=O)NCc3cc(OC)ccc3OC)c2)C1 (centres undefined)

>  <RP-LC retention time (s)>
766

$$$$
>  <molecule>
CCC1CCCCN1CCCNC(=O)Cn1ccc2cc(S(=O)(=O)N3CCCCCC3)ccc21 (centres undefined)

>  <RP-LC retention time (s)>
704

$$$$
>  <molecule>
CCc1ccc(NC(=O)CN2C(=O)CCCc3cc(S(=O)(=O)N4CCCC4)ccc32)cc1

>  <RP-LC retention time (s)>
918

$$$$
>  <molecule>
O=C(NC1CCCCCCC1)C1CCCN(C(=O)c2cc(-c3ccncc3)n[nH]2)C1 (centres undefined)

>  <RP-LC retention time (s)>
646

$$$$
>  <molecule>
Cc1cn(C)nc1C(=O)N(CCN1CCOCC1)c1nc2c(C)ccc(C)c2s1

>  <RP-LC retention time (s)>
648

$$$$

I would be grateful if you could share the reported RP-LC retention time for `CCc1nc2ccccc2c(C(=O)NC2CCCCC2)c1C` .
650

I would be grateful if you could share the reported RP-LC retention time for `CC(C)(C)c1noc(-c2ccnc(-n3cnc(C(=O)NC4CCCC4)c3)c2)n1` .
1020

I would be grateful if you could share the reported RP-LC retention time for O=C(c1ccc(F)c(F)c1)N1CCC(n2c(-c3ccoc3)nc3cccnc32)C1 (centres undefined) .
745

I would be grateful if you could share the reported RP-LC retention time for `O=C(c1ccc2c(c1)N(Cc1ccccc1)C(=O)CO2)N1CCN(c2ccccn2)CC1` .
1230

I would be grateful if you could share the reported RP-LC retention time for `Cc1ncoc1C(=O)N1CC(F)(F)C[C@H]1c1nc(C2CC2)no1` .
768

I would be grateful if you could share the reported RP-LC retention time for `Cc1ccc2oc(N3CCN(C(=O)c4cccc(-c5noc(C)n5)c4)CC3)nc2n1` .
623

I would be grateful if you could share the reported RP-LC retention time for COc1ccccc1NC(=O)C1CCCN1S(=O)(=O)c1cc2c(cc1Cl)NC(=O)CO2 (centres undefined) .
805

I would be grateful if you could share the reported RP-LC retention time for `COc1ccc(N2CCN(c3nc(C(=O)NCC4CC4)cs3)CC2)cc1` .
915

I would be grateful if you could share the reported RP-LC retention time for `O=C(NCCCN1CCCC1)C1CCN(c2nccnc2Sc2ccccc2)CC1` .
650

I would be grateful if you could share the reported RP-LC retention time for `COc1ccc(OC)c(NC(=O)N2CCN(Cc3nc4cc(C)ccc4o3)CC2)c1` .
721

I would be grateful if you could share the reported RP-LC retention time for `O=C(CSc1nccc(-c2ccc3c(c2)OCO3)n1)c1ccc2c(c1)OCO2` .
888

I would be grateful if you could share the reported RP-LC retention time for CCCNC(=O)C1CCCN(c2nc3ncn(CC(=O)Nc4ccc(C(C)C)cc4)c(=O)c3s2)C1 (centres undefined) .
801

I would be grateful if you could share the reported RP-LC retention time for `COCc1cc(=O)n(CC(=O)NCc2ccccc2Cl)c(N)n1` .
619

I would be grateful if you could share the reported RP-LC retention time for `CCn1c(C(=O)NCCc2ccc(OC)c(OC)c2)cc2sc(Cl)cc21` .
1030

These measurements were taken from the METLIN SMRT retention time set (Domingo-Almenara et al. 2019).
